- assay: label from the status in PepcDB records

sequence.code	protein production
MTRYALLVRGINVGGKNKVVMAELRQELTNLGLEKVESYINSGNIFFTSIDSKAQLVEKLETFFAVHYPFIQSFSLLSLEDFEAELENLPAWWSRDLARKDFLFYTEGLDVDQVIATVESLELKDEVLYFGKLGIF	failed
MKSLYRSRMANHSKHGRPFTLSLPNRSQCVKIVATFAAVGLLATGGIISRSFYTSSTQAEPTTRVTAYSATDAEASRGNAREALGGDTAYVTVKINGKSRVVPGTNFTNVKSVLEAGNITLEPEDTVSPSLTTKVDEKTVITVSRAGASVEVSDSSIAFNVVKKETSSLPKGQEKVETEGEEGVMESTNLVTRSGDTVISSNMISSYVKKAPVDKVVLVGTGSTSTSSSSSSSSSTASVGTTVPAGEMQQWAHDYLISNGYTEADFTATVYIISHESGWSVSATNPSSGAYGLPQALPGSKMVSAGADWATNYQTQLKWFWGYCASRYGSIQGAYSYWLAHKCY	failed
MYKLDLPTLMDAFHKVFHVSMLRKCITHQENVISEPPPDLLENMMIVGMLIPNLLGVSSEMVGR	failed
MINEQRLLNTFLELVQIDSETGNESTIQPILKEKFIALGLDVKEDEAAKHPKLGANNLVCTMNSTIEEGEVPKLYLTSHMDTVVPAINVKPIVKDDGYIYSDGTTILGADDKAGLAAMLEVLQVIKEQQIPHGQIQFVITVGEESGLIGAKELNSELLDADFGYAIDASADVGTTVVGAPTQMLISAKIIGKTAHASTPKEGVSAINIAAKAISRMKLGQVDEITTANIGKFHGGSATNIVADEVILEAEARSHDPERIKTQVKHMTDVFETTASELGGKAEVTVEQSYPGFKINDNEAVVKIAQESARNLGLSANTIISGGGSDGSIINTFGIPSVILGVGYEKIHTTNERMPIKSLNLLASQVLEIIKIVARQSK	not failed
MNQEVRFSRLEPEQRKALLIEATLACLKRHGFQGASVRKICAEAGVSVGLINHHYDGKDALVAEAYLAVTGRVMRLLRGAIDTAPGGARPRLSAFFEASFSAELLDPQLLDAWLAFWGAVGSIEAIGRVHDHSYGEYRALLVGVLRQLAEEGGWADFDAELAAISLSALLDGLWLESGLNPATFTPRQGVQICEAWVDGLEAGAHRRFRRAMEAC	not failed
MMTLSDLPSDLAEEVLSKIPVTSLRGVRATCKKWNTLSKDRSFTRKHLAQAKAAAAREFMVVMVMDFQVYLMGINLHKDVDATINGQGKLISLDDSNQVDISYVYHCDSLVLCIPKDCARLVVWNPYWGQTLWFKPTSLRHFPHWYMYAIGYQMRRGNRDAKTSRWLLTCRPTTKTITKNTIDHL	failed
MELDDAYANGAYIEGAADYPPRWAASAEDFRNSLQDRARLNLSYGEGDRHKFDLFLPEGTPVGLFVFVHGGYWMAFDKSSWSHLAVGALSKGWAVAMPSYELCPEVRISEITQQISQAVTAAAKEIDGPIVLAGHSAGGHLVARMLDPEVLPEAVGARIRNVVPISPLSDLRPLLRTSMNEKFKMDADAAIAESPVEMQNRYDAKVTVWVGGAERPAFLDQAIWLVEAWDADHVIAFEKHHFNVIEPLADPESDLVAVITA	not failed

----------
- assay: label from the status in PepcDB records
observed.property: protein production

sequence.code	observed.property	reported.measurement
MTGQELRQLLLDKWGYSYDVQFRRTQGKIFLQVMWKYLEQASFPMNETEYQEHLDSVANYLHALGGAVQVKTFITQTKERPRLGKAVSIPLDLGERASEWIILEHHHHHH	protein production	not failed
STRRVSVRDKLLVKEVAELEANLPCTCKVHFPDPNKLHCFQLTVTPDEGYYQGGKFQFETEVPDAYNMVPPKVKCLTKIWHPNITETGEICLSLLREHSIDGTGWAPTRTLKDVVWGLNSLFTDLLNFDDPLNIEAAEHHLRDKEDFRNKVDDYIKRYAR	protein production	not failed
MHTNWQVCSLVVQAKSERISDISTQLNAFPGCEVAVSDAPSGQLIVVVEAEDSETLIQTIESVRNVEGVLAVSLVYHQQEEQGEETP	protein production	not failed

----------
- assay: label from the status in PepcDB records

sequence.code	protein production
MGHHHHHHSHMDEQSVESIAEVFRCFICMEKLRDARLCPHCSKLCCFSCIRRWLTEQRAQCPHCRAPLQLRELVNCRWAEEVTQQLDTLQLCSLTKHEEN	not failed
MTQRPRQDERAKDVWFEYVLTAGRFSAWPIRWQGWLATALLIVGPITGMMAIAKLAPGVPPFVLVLGAMTVCFGTVFPLAYFKGRPAKSRG	failed
MEDGKQAINEGSNDASPDLDVNGTILMNNEDFSQWSVDDVITWCISTLEVEETDPLCQRLRENDIVGDLLPELCLQDCQDLCDGDLNKAIKFKILINKMRDSKLEWKDDKTQEDMITVLKNLYTTTSAKLQEFQSQYTRLRMDVLDVMKTSSSSSPINTHGVSTTVPSSNNTIIPSSDGVSLSQTDYFDTVHNRQSPSRRESPVTVFRQPSLSHSKSLHKDSKNKVPQISTNQSHPSAVSTANTPGPSPNEALKQLRASKEDSCERILKNAMKRHNLADQDWRQYVLVICYGDQERLLELNEKPVIIFKNLKQQGLHPAIMLRRRGDFEEVAMMNGSDNVTPGGRL	failed
MKKPKFLSLQEDDTFEKMRQSRLQKNKRKRDSGLNVFEEVVKDLTYGYMKIGDGDEIYGKHRKKKRVSKAKELEMAMTLEALKKDQEKGDIVAKNHSWQAAISRAAGIKIHDDPKRLKKRIHKETKMREKNTEKWKERVDVQQKFRAEKQQKRSENVIDRIQQKKMRKIAKREKKLLRPGY	failed
MIEQELTYQDLRIPSSEIYEAMGYKDSIPDQMVIDETNTLLKRVIPLLRPRFAFFFMEGTLDIEKETLSVQSIHPPTVNPIQDTIPTRSPEQNTFSTQSKSTVFSVGKTIARQLRGSEAFVFFAATAGTEFEVFQHTLQQEEDMVKIYIADSLGSIIAEKTADCMEVALAEYIREKNWKHTNRYSPGYCGWHVSEQQKLFPLFPIAAPCGIRLTDSSLMVPIKSVSGVIGTGTNVRKLEYTCGLCTYENCYRKRKHR	not failed
IHFTTEVITSRIEPANRYVAEKLRITPGQDILYLERLRSIGDEKAMLIENRINIELCPGIVEIDFNQHNLFPTIESLSKRKIRYSESRYAARLIGNERGHFLDISEDAPVLHLEQLVFFSRELPVEFGNVWLKG	failed
MSDLVRVERKGRVTTVILNRPASRNAVNGPTAAALCAAFEQFDRDDAASVAVLWGAGGTFCAGADLKAFGTPEANSVHRTGPGPMGPSRMMLSKPVIAAVSGYAVAGGLELALWCDLRVAEEDAVFGVFCRRWGVPLIDGGTVRLPRLIGHSRAMDMILTGRGVPADEALAMGLANRVVPKGQARQAAEELAAQLAALPQQCLRSDRLSALHQWGLPESAALDLEFASIARVAGEALEGARRFAAGAGRHGAPAPRAEQGDTL	not failed

----------
- assay: label from the status in PepcDB records

sequence.code	protein production
MHISFIIPAFNEEQLIEPCLRSITDAVAANRSYGYTSEIIVVDNNSTDATAQLAKQAGAQVVFEPVNHIARARTAGAGAARGDWLVFMDADCLLNAGLVGDIFELIRQGRHIGAGSTLYMPGQPWWAEMLLRIWTFLSVQLGWAAGALIVCNAAAFREVGGFDLTLYAAEEIDLSQKLKKYGRKRKLKFAILNAHPLETSSRKTQLYSGWEIVGQFLRLVLSPLGTLRNKKKLPMWYDGRRLEHHHHHH	not failed
MADLYTVVSSIILLFIVLDPVGVSPYVASIVARRPEGERERIVRTALASAGAILVAFTLIGVAVLDILGVSMDEFKVAAGLLLLIYATADLFEIKIGYSEPSGDEVAIFPLATPLLAGPGSIATVMYIMGSSGIAVALIAILVNLVLAYPILHASLKLVRLLGRHGSLLVAKFTAFLMVGFAVSIIFDGLRGIVPGVFS	failed
MREESIGRIAKDFLGHEGFQLTEWGGGNLNYLYRVDSTKESYILKYAPPYIRCLGEGYPLSSERLRYEILGLKAANETIPEFAPKLFYVAKEGVVMEYLEGFKLLRQAFIQGEKIPHLAEHLAEMLARFLVKNSFWALNEGERKKLLEQSENSLMRRLSEDYIFTFPFMEHPTNQKNPTSAPSVREIHQDKEWLGAILWLKSRFSTAKEGLLHGDLHTGSLMIKGEQIKMIDFEFSFVGPLSFDLGAILANWLIAYRTHKERGEVGGYSQWLREEMEEFIERFKEQFEFWAGEHGAPQIGIKGYLEALLIEAWGMAGVKIARRILGAAGVEDITSLESPLKEEVERRLLVLSREMTLRAALGIIPIQKGGREAYSWLF	failed
MRNLIISAALVAASLFGMSAQAAEPIESGKQYVELTSAVPVAVPGKIEVIELFWYGCPHCYAFEPTINPWVEKLPSDVNFVRIPAMFGGPWDAHGQLFITLDTMGVEHKVHAAVFEAIQKGGKRLTDKNDMADFVATQGVNKDDFLKTFDSFAVKGKIAQYKELAKKYEVTGVPTMIVNGKYRFDLGSAGGPEKTLQVADQLIDKERAAAKAAK	failed
MMPLSTPDFASIRDTLLRDLQNLRADADIAPDSDYFVRASSVASAVEGLYQHQSWIARQIFPDTADSEYLEQHARLRGIVRKPAAAASGTLRISGNAGAVVSGSLQLRIGEQLYATPAANPDGSPYAARLDANGQAELPIFASQAGAAGNQPESLPVELMQAPSGVSAKALLLSMRNGVDVEDDAALLDRLLELIRRPPAGGNRHDYRRWAMEVKGVSAAYVYPLRRGLGTVDVVITANGDLPSQEILNNVQAHIEDLRPVTAKSCLVLAPTPRPVDIDVALNLGGANLDAFTPLLQQTLQAYFAGLAPGERLVKSRIEALISDLPGVQDRQLNSPAGNVDPVSDPTKVEWLRLGKLTVGLLKLEHHHHHH	not failed

Entry source: a protein production outcome set (Wang et al. 2014)
